# credit: the supplement of paper PMC12338614

B1: library; numbered along this chain (parent)
chain: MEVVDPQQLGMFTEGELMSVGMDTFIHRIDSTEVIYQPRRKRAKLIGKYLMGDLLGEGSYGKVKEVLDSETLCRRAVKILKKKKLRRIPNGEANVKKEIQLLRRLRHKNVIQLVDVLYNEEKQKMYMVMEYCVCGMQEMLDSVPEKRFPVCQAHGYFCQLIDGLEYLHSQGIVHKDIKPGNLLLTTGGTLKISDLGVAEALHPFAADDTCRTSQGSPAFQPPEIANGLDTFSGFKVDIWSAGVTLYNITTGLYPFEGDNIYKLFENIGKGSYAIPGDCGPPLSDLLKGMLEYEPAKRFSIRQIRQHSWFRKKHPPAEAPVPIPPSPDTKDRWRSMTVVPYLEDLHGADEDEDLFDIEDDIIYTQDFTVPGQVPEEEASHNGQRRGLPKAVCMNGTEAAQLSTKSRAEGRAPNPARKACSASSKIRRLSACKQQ

variants of: B1; experiment: STK11 functional score (HeLa growth suppression), rescaled enrichment; synonymous median = 1, nonsense median = 0 (normalised score); details: with HeLa; variant type: missense
Mark true (1) only when STK11 functional score stays strictly below 0.7. Values equal to the cut-off are false (0).

Exam item: I wonder whether I161M has STK11 functional score below 0.7. Can you tell?
Marked response: false (0)

Exam item: I wonder whether L101P has STK11 functional score below 0.7. Can you tell?
Marked response: true (1)

Exam item: I wonder whether H306Q has STK11 functional score below 0.7. Can you tell?
Marked response: true (1)

Exam item: I wonder whether L67W has STK11 functional score below 0.7. Can you tell?
Marked response: true (1)

Exam item: I wonder whether K416D has STK11 functional score below 0.7. Can you tell?
Marked response: false (0)

Exam item: I wonder whether T186V has STK11 functional score below 0.7. Can you tell?
Marked response: false (0)

Exam item: I wonder whether N94C has STK11 functional score below 0.7. Can you tell?
Marked response: false (0)

Exam item: I wonder whether M289W has STK11 functional score below 0.7. Can you tell?
Marked response: true (1)

Exam item: I wonder whether V110N has STK11 functional score below 0.7. Can you tell?
Marked response: true (1)

Exam item: I wonder whether K41W has STK11 functional score below 0.7. Can you tell?
Marked response: false (0)

Exam item: I wonder whether L140Q has STK11 functional score below 0.7. Can you tell?
Marked response: false (0)

Exam item: I wonder whether S283I has STK11 functional score below 0.7. Can you tell?
Marked response: false (0)

Exam item: I wonder whether P413V has STK11 functional score below 0.7. Can you tell?
Marked response: false (0)

Exam item: I wonder whether V372K has STK11 functional score below 0.7. Can you tell?
Marked response: false (0)

Exam item: I wonder whether G288F has STK11 functional score below 0.7. Can you tell?
Marked response: true (1)

Exam item: I wonder whether L245H has STK11 functional score below 0.7. Can you tell?
Marked response: true (1)

Exam item: I wonder whether Q152P has STK11 functional score below 0.7. Can you tell?
Marked response: true (1)

Exam item: I wonder whether H27Q has STK11 functional score below 0.7. Can you tell?
Marked response: false (0)

Exam item: I wonder whether F204L has STK11 functional score below 0.7. Can you tell?
Marked response: false (0)
